Documented Plant response rating (0 to 10; 0 is no effect, 10 is complete control), Bedstraw across a set of compounds
system: bedstraw; test: Test B pre/postemergence bedstraw; assay type: in vivo, Galium aparine; conditions: Rate 250 g/ha; Postemergence
Respond using a number only.

Guide cases for Plant response rating (0 to 10; 0 is no effect, 10 is complete control), Bedstraw, answers given:
compound	recorded number
CCN(CC)C(=O)Cn1c(=O)on(C(=O)N(c2ccc(F)cc2)C(C)C)c1=O	6
C=C(C)CCn1c(=O)on(C(=O)N(c2ccc(F)cc2)C(C)C)c1=O	0
CC(C)N(C(=O)n1oc(=O)n(CCC2OCCCO2)c1=O)c1ccc(F)cc1	2
CSc1ccc(N(C(=O)n2oc(=O)n(-c3ccccc3C)c2=O)C(C)C)cc1	0

Prompt: Form field - read-out: Plant response rating (0 to 10; 0 is no effect, 10 is complete control), Bedstraw; system: bedstraw; submitted item: CC(C)N(C(=O)n1oc(=O)n([C@H](C)c2ccccc2)c1=O)c1ccc(F)cc1
Response: 5

###

system: giant foxtail; experiment: Test B pre/postemergence giant foxtail; type: in vivo, Setaria faberii; settings: Postemergence, Rate 500 g/ha; scale of 0 to 10 where 0 is no effect and 10 is complete control
Documented Plant response rating, Giant foxtail across a set of molecules
Respond using a number only.

Guide cases for Plant response rating, Giant foxtail, answers given:
molecule	recorded number
CCOP(=O)(Cn1c(=O)on(C(=O)N(c2ccc(Cl)cc2)C(C)C)c1=O)OCC [Compound 599]	0
CC(C)N(C(=O)n1oc(=O)n(C[Si](C)(C)C)c1=O)c1ccccc1 [Compound 577]	8
C=C(Cl)Cn1c(=O)on(C(=O)N(c2ccc(F)cc2F)C(C)C)c1=O [Compound 634]	9

Prompt: Please look up its Plant response rating, Giant foxtail: CCC=CCn1c(=O)on(C(=O)N(c2ccccc2)C(C)C)c1=O [Compound 582]
Response: 7

###

tested on: rice; experiment: Test B flood test rice; type: in vivo, Oryza sativa; details: Rate 125 g/ha; Pre-emergence; flood test species; scale 0 to 10 where 0 is no effect and 10 is complete control
Documented Rice plant response rating across a set of compounds
Respond using a number only.

Guide cases for Rice plant response rating, answers given:
compound	Rice plant response rating
CCc1cccc(C)c1-n1c(=O)on(C(=O)N(c2ccc(F)cc2)C(C)C)c1=O	0
Cc1cccc(C)c1-n1c(=O)on(C(=O)N(c2ccc(F)cc2)C(C)C)c1=O	0
COc1cc(C)cc(C)c1-n1c(=O)on(C(=O)N(c2ccc(F)cc2F)C(C)C)c1=O	0
CC(C)N(C(=O)n1oc(=O)n(CC(C)(C)C)c1=O)c1ccc(F)cc1F	0
CC(C)N(C(=O)n1oc(=O)n(Cc2ccco2)c1=O)c1ccc(F)cc1F	0
CC(C)N(C(=O)n1oc(=O)n(N(C)C)c1=O)c1ccccc1	0

Prompt: Please look up its Rice plant response rating: Cc1c(-n2c(=O)on(C(=O)N(c3ccc(Cl)cc3)C(C)C)c2=O)ccc2ccccc12
Response: 0

Prompt: // next record CC(C)n1c(=O)on(C(=O)N(c2ccc(Cl)cc2Cl)C2CCC2)c1=O
Response: 0

###

Documented Sugarbeets plant response rating (0 to 10 scale) across a set of molecules
test system: sugar beet; assay: Test B pre/postemergence sugar beet; assay type: in vivo, Beta vulgaris; conditions: Preemergence, Rate 125 g/ha; 0 is no effect, 10 is complete control
Respond using a number only.

compound	target of assay	recorded number
C=C(C)CCn1c(=O)on(C(=O)N(c2ccc(F)cc2)C(C)C)c1=O	sugar beet	5
CC(C)N(C(=O)n1oc(=O)n(C(C)(C)C)c1=O)c1ccc(Cl)cc1	sugar beet	0
CC(C)N(C(=O)n1oc(=O)n(Cc2ccco2)c1=O)c1ccc(F)cc1F	sugar beet	0
Cc1nc(C)c(Cn2c(=O)on(C(=O)N(c3ccc(F)cc3)C(C)C)c2=O)s1	sugar beet	0
CC(C)c1noc(C(C)C)c1-n1c(=O)on(C(=O)N(c2ccc(F)cc2)C(C)C)c1=O	sugar beet	0

Prompt: Please look up its Sugarbeets plant response rating (0 to 10 scale): Cc1ccccc1-n1c(=O)on(C(=O)N(c2ccc(Br)cc2)C(C)C)c1=O
Response: 0

Prompt: // next record CC(C)N(C(=O)n1oc(=O)n(C2CCCCC2)c1=O)c1ccc(F)cc1F
Response: 0

Data provenance is patent US6737383B1.
